These measurements were taken from ChEMBL document CHEMBL3407345.

Assay: Toxicity against human THP1 cells assessed as cell viability at 10 uM incubated for 24 hrs by propidium iodide staining based flow cytometry
Details: thp-1, 24 h
measurement-kind: Activity

- smiles-text: "CCOC(=O)Cn1c2cc(OC)ccc2c2cc[n+]3nc(CC)c(CC)cc3c21.Cc1cc(C)cc(CS(=O)(=O)[O-])c1"
  recorded-result: "Non-toxic"
- smiles-text: "CCc1cc2c3c(cc[n+]2nc1CC)c1ccc(OC)cc1n3CC(=O)O.Cc1cc(C)cc(CS(=O)(=O)[O-])c1"
  recorded-result: "Non-toxic"
- smiles-text: "C#CCCCn1c2cc(OC)ccc2c2cc[n+]3nc4c(cc3c21)-c1cccc2cccc-4c12.Cc1cc(C)cc(CS(=O)(=O)[O-])c1"
  recorded-result: "Non-toxic"
- smiles-text: "COc1ccc2c(c1)[nH]c1c2cc[n+]2nc(C)c(C)cc12.[Br-]"
  recorded-result: "Non-toxic"
- smiles-text: "CCc1cc2c3c(cc[n+]2nc1CC)c1ccc(OCc2ccccc2)cc1n3C(=O)OC(C)(C)C.Cc1cc(C)cc(CS(=O)(=O)[O-])c1"
  recorded-result: "Non-toxic"
- smiles-text: "C#CCCCn1c2cc(OC)ccc2c2cc[n+]3nc(-c4ccco4)c(-c4ccco4)cc3c21.Cc1cc(C)cc(CS(=O)(=O)[O-])c1"
  recorded-result: "Non-toxic"
- smiles-text: "CCc1cc2c3c(cc[n+]2nc1CC)c1ccc(OC)cc1n3CCCC#CC#CCCCn1c2cc(OC)ccc2c2cc[n+]3nc(CC)c(CC)cc3c21.Cc1cc(C)cc(CS(=O)(=O)[O-])c1.Cc1cc(C)cc(CS(=O)(=O)[O-])c1"
  recorded-result: "Non-toxic"
- smiles-text: "CCc1cc2c3[nH]c4c(N)cccc4c3cc[n+]2nc1CC.Cl.Cl"
  recorded-result: "Non-toxic"
- smiles-text: "Cc1cc(C)cc(CS(=O)(=O)[O-])c1.O=C(O)CCCn1c2ccccc2[n+]2nc3c(cc12)-c1cccc2cccc-3c12"
  recorded-result: "Non-toxic"
- smiles-text: "CCc1cc2c3[nH]c4c([N+](=O)[O-])cccc4c3cc[n+]2nc1CC.Cc1cc(C)cc(CS(=O)(=O)[O-])c1"
  recorded-result: "Non-toxic"
- smiles-text: "Cc1cc(C)cc(CS(=O)(=O)[O-])c1.O=C(O)Cn1c2ccccc2[n+]2nc3c(cc12)-c1cccc2cccc-3c12"
  recorded-result: "Non-toxic"
- smiles-text: "CCc1cc2c3[nH]c4ccc(Br)cc4c3cc[n+]2nc1CC.Cc1cc(C)cc(CS(=O)(=O)[O-])c1"
  recorded-result: "Non-toxic"
- smiles-text: "CN(C)CCC[N+](C)(C)CCCn1c2ccccc2[n+]2nc3c(cc12)-c1cccc2cccc-3c12.[Br-].[Br-]"
  recorded-result: "Non-toxic"
- smiles-text: "CCc1cc2c3c(cc[n+]2nc1CC)c1ccc(OC)cc1n3CCCI.[I-]"
  recorded-result: "Non-toxic"

====

Assay: Anti-inflammatory activity in human THP1 cells assessed as inhibition of LPS-stimulated TNFalpha production at 25 uM incubated for 24 hrs followed by further stimulation with LPS during last 4 hrs by ELISA method
Type: functional
Details: THP-1

- smiles-text: "CCc1cc2c3c(cc[n+]2nc1CC)c1ccc(OC)cc1n3CC(=O)O.Cc1cc(C)cc(CS(=O)(=O)[O-])c1"
  unit-symbol: "%"
  inhibition at 25 µM: 29
- smiles-text: "Cc1cc(C)cc(CS(=O)(=O)[O-])c1.O=C(O)CCCn1c2ccccc2[n+]2nc3c(cc12)-c1cccc2cccc-3c12"
  unit-symbol: "%"
  inhibition at 25 µM: 47
- smiles-text: "CCc1cc2c3c(cc[n+]2nc1CC)c1ccc(OC)cc1n3CCCI.[I-]"
  unit-symbol: "%"
  inhibition at 25 µM: 79
- smiles-text: "CCc1cc2c3[nH]c4c([N+](=O)[O-])cccc4c3cc[n+]2nc1CC.Cc1cc(C)cc(CS(=O)(=O)[O-])c1"
  unit-symbol: "%"
  inhibition at 25 µM: 47
- smiles-text: "Cc1cc(C)cc(CS(=O)(=O)[O-])c1.O=C(O)Cn1c2ccccc2[n+]2nc3c(cc12)-c1cccc2cccc-3c12"
  unit-symbol: "%"
  inhibition at 25 µM: 84
- smiles-text: "CCOC(=O)Cn1c2cc(OC)ccc2c2cc[n+]3nc(CC)c(CC)cc3c21.Cc1cc(C)cc(CS(=O)(=O)[O-])c1"
  unit-symbol: "%"
  inhibition at 25 µM: 94
